Molecular target: T1, CEACAM1 (Sino Biological) (human, UniProt P13688 35-428, limits assumed)
T1 construct: may be the same as CEACAM1-HIS; also called hCEACAM1; biotinylated soluble CEACAM1
T1 sequence: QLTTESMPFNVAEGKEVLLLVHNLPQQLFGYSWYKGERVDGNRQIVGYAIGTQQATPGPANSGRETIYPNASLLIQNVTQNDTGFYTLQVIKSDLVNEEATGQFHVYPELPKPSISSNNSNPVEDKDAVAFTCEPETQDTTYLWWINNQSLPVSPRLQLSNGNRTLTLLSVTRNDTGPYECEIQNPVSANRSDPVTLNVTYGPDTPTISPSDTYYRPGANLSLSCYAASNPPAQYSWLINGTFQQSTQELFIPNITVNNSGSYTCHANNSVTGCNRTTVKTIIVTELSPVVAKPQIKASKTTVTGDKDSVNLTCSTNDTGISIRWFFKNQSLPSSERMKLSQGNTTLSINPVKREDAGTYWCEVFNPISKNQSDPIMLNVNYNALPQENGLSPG
Assay: SPR multi-cycle, IgG on Protein A
recorded metric: pKd
Reminder that pKd means the negative base-10 logarithm of the concentration expressed in mol/L.

Input line: What value of measured pKd is listed for He9/L17 (antibody, IgG4, V domains shown, IgG4 S241P, kappa; also called He9 / 17) VH: EVQLLESGGGLVQPGGSLRLSCAASGFSFSDYYLYWVRQAPGKGLEWVATISVGGGQTSYADSVKGRFTISRDNSKNTLYLQMNSLRAEDTAMYYCARAMYYGPAWFAYWGQGTLVTVSS VL: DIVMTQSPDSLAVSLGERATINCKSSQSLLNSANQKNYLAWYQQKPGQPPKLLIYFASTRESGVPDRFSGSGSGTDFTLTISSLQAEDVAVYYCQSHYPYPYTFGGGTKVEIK ?
Output line: 7.39

Input line: Try He17/L16 (antibody, IgG4, V domains shown, IgG4 S241P, kappa; also called 17 / 16) VH: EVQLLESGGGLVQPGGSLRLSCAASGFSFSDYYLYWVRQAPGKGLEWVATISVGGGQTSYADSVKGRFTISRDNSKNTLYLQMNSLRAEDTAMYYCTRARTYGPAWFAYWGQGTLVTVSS VL: DIVMTQSPDSLAVSLGERATINCKSSQSLLNSANQKNYLAWYQQKPGQPPKLLIYFASTRESGVPDRFSGSGSGTDFTLTISSLQAEDVAVYYCQSHYPYPFTFGGGTKVEIK next.
Output line: 7.59

Input line: Try Parent VH/L1 (antibody, IgG4, V domains shown, IgG4 S241P, kappa; also called VHp/L1; VH2 N56Q / 1) VH: EVQLLESGGGLVQPGGSLRLSCAASGFSFSDYYLYWVRQAPGKGLEWVATISVGGGQTSYADSVKGRFTISRDNSKNTLYLQMNSLRAEDTAMYYCTRGLYYGPAWFAYWGQGTLVTVSS VL: DIVMTQSPDSLAVSLGERATINCKSSQSLLNSANQKNYLAWYQQKPGQPPKLLIYFASTRESGVPDRFSGSGSGTDFTLTISSLQAEDVAVYYCQSHYPFYYTFGGGTKVEIK next.
Output line: 6.90

Input line: Try He9/L6 (antibody, IgG4, V domains shown, IgG4 S241P, kappa; also called He9 / 6) VH: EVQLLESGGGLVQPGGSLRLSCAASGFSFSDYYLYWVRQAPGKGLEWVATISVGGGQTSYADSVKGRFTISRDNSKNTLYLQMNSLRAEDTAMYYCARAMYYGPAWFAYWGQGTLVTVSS VL: DIVMTQSPDSLAVSLGERATINCKSSQSLLNSANQKNYLAWYQQKPGQPPKLLIYFASTRESGVPDRFSGSGSGTDFTLTISSLQAEDVAVYYCQSHYPFSFTFGGGTKVEIK next.
Output line: 7.40

Input line: Try He3/L20 (antibody, IgG4, V domains shown, IgG4 S241P, kappa; also called He3 / 20) VH: EVQLLESGGGLVQPGGSLRLSCAASGFSFSDYYLYWVRQAPGKGLEWVATISVGGGQTSYADSVKGRFTISRDNSKNTLYLQMNSLRAEDTAMYYCTRALTYGPAWLAYWGQGTLVTVSS VL: DIVMTQSPDSLAVSLGERATINCKSSQSLLNSANQKNYLAWYQQKPGQPPKLLIYFASTRESGVPDRFSGSGSGTDFTLTISSLQAEDVAVYYCQSHFPYPLTFGGGTKVEIK next.
Output line: 7.59

Input line: Try He17/L1 (antibody, IgG4, V domains shown, IgG4 S241P, kappa; also called 17 / 1; H17/L1) VH: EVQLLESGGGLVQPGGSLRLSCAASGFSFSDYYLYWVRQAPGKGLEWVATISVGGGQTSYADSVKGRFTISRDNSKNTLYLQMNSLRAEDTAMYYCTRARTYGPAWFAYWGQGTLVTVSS VL: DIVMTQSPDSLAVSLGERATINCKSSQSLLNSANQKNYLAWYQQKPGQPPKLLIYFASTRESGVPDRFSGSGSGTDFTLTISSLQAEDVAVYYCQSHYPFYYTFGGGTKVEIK next.
Output line: 7.87

Input line: Try Parent VH/L18 (antibody, IgG4, V domains shown, IgG4 S241P, kappa; also called VHp/L18; VH2 N56Q / 18) VH: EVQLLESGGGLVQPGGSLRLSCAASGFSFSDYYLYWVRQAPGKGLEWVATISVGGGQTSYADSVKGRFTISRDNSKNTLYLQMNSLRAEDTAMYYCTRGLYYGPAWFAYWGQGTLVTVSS VL: DIVMTQSPDSLAVSLGERATINCKSSQSLLNSANQKNYLAWYQQKPGQPPKLLIYFASTRESGVPDRFSGSGSGTDFTLTISSLQAEDVAVYYCQSHFPYPFTFGGGTKVEIK next.
Output line: 7.00

Input line: Try Parent VH/L4#2 (antibody, IgG4, V domains shown, IgG4 S241P, kappa; also called VHp/L4 #2; VH2 N56Q / 4#2) VH: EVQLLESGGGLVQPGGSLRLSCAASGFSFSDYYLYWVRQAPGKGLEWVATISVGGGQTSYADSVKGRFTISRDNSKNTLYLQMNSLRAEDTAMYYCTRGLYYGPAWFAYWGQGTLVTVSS VL: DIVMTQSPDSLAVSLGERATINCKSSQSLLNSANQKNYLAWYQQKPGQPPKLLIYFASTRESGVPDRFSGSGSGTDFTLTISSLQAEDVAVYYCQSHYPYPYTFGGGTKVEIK next.
Output line: 6.83

Input line: Try He9/L4#2 (antibody, IgG4, V domains shown, IgG4 S241P, kappa) VH: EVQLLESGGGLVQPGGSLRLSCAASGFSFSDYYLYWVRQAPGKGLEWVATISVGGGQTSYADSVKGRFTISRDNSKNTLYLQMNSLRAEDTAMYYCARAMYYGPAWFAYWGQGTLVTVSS VL: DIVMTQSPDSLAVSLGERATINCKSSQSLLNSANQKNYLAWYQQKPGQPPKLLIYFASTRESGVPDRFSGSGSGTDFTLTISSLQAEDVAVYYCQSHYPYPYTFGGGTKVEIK next.
Output line: 7.47

Input line: Try He14/L1 (antibody, IgG4, V domains shown, IgG4 S241P, kappa; also called He14 / 1) VH: EVQLLESGGGLVQPGGSLRLSCAASGFSFSDYYLYWVRQAPGKGLEWVATISVGGGQTSYADSVKGRFTISRDNSKNTLYLQMNSLRAEDTAMYYCTRGLYYGPSWVAYWGQGTLVTVSS VL: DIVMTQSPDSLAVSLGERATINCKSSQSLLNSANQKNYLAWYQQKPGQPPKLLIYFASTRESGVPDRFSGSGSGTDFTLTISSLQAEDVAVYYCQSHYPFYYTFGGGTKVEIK next.
Output line: 7.17
